Where do these numbers come from? They come from the NIST ThermoML archive (doi:10.1016/j.jct.2015.02.010).

assay protocol: Molar enthalpy of transition or fusion
protocol conditions: Crystal; DSC
value kind: Molar enthalpy of transition or fusion (kJ/mol)
Give bare numbers, in kJ/mol.

# example entries with known answers
CC(=O)Oc1ccccc1C(=O)O [2-acetoxybenzoic acid]; 33.9
CC(=O)Oc1cccc(C(=O)O)c1 [3-acetoxybenzoic acid]; 26.3
CC(=O)Nc1ccccc1C(=O)O [2-acetamidobenzoic acid]; 29.3

// moving on: another record for Molar enthalpy of transition or fusion
Q) If you can, please state the reported Molar enthalpy of transition or fusion value of CC(=O)Nc1cccc(C(=O)O)c1 [3-(acetylamino)benzoic acid] .
A) 42.3

* * *

protocol conditions: Crystal; DTA
value kind: Normal melting temperature (°C)
Give bare numbers, in °C.

# example entries with known answers
CC(=O)Nc1ccccc1C(=O)O; 181.96
CC(=O)Oc1cccc(C(=O)O)c1; 131.61
CC(=O)Oc1ccccc1C(=O)O; 134.23

// moving on: another record for Normal melting temperature
Q) If you can, please state the reported Normal melting temperature value of CC(=O)Nc1cccc(C(=O)O)c1 .
A) 249.04
